For each of the sequences below, state its shrunken log2 fold change.
- Tested on: Escherichia coli TOP10;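 note: peptides expressed intracellularly from a pBAD plasmid library in pooled LB shake-flask culture, induced with 0.3% L-arabinose, DNA abundance read by NGS, three biological replicates, DESeq2 with apeglm shrinkage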
- assay text: shrunken log2 fold change of peptide-encoding DNA abundance (4.5 h post-induction vs induction); higher = less antimicrobial activity (less host growth inhibition)
- condition label: time post-induction: 4.5 h; library: site-saturation at positions 5, 18, 19, 20
Numbers only.

Here are 5 sequences together with their reported answers.
RRIRKRPPRLPRPRPRPQLKPRP ... 0.275
RRIRWRPPRLPRPRPRPTYMPRP ... -0.0572
RRIRWRPPRLPRPRPRPSGFPRP ... 0.121
RRIRLRPPRLPRPRPRPVYLPRP ... -1.14
RRIRDRPPRLPRPRPRPMDIPRP ... 0.0403

For each entry beneath this line, provide reported shrunken log2 fold change.
1. RRIRRRPPRLPRPRPRPVIHPRP
2. RRIRLRPPRLPRPRPRPKALPRP

OUT:
1: -0.0832; 2: -0.224
